Reported CC50 at 72 h is given for each of the following molecules.
Protocol Details: Cytotoxicity against MDBK cells incubated for 72 hrs by CCK8 assay
Format: toxicity, cell-based, Bos taurus
Setup Conditions: cattle, MDBK cells

- C#CCn1cc(/C=N\N=C\c2ccco2)c2cc([N+](=O)[O-])ccc21: > 312 µM
- C#CCn1cc(/C=N\N=C\c2ccncc2)c2cc([N+](=O)[O-])ccc21: 267 µM
- C#CCn1cc(/C=N\N=C/C2CC2)c2cc([N+](=O)[O-])ccc21: > 340 µM
- C#CCn1ccc2cc([N+](=O)[O-])ccc21: > 500 µM
- C#CCn1cc(\C=N/N=C/C(C)=C\C)c2cc([N+](=O)[O-])ccc21: > 281 µM

Next molecule, CC50 at 72 h to be filled in.
## Task What does the record list as CC50 at 72 h for C#CCn1cc(/C=N\N=C/CC)c2cc([N+](=O)[O-])ccc21 ?
## Result > 354 µM

====

Protocol Details: Cytotoxicity against green monkey Vero cells incubated for 48 hrs by resazurin dye based assay
Format: toxicity, cell-based
Setup Conditions: African green monkey (Chlorocebus sabaeus)
Readout Name: IC50 at 48 h

* O=[N+]([O-])c1ccc2[nH]ccc2c1 | > 100 µM
* C#CCn1ccc2cc([N+](=O)[O-])ccc21 | > 100 µM
* C#CCn1cc(/C=N\N=C\C2CCCCC2)c2cc([N+](=O)[O-])ccc21 | > 100 µM

## Task What does the record list as IC50 at 48 h for C#CCn1cc(/C=N\N=C\c2ccccn2)c2cc([N+](=O)[O-])ccc21 ?
## Result > 100 µM

## Task What does the record list as IC50 at 48 h for C#CCn1cc(/C=N\N=C\c2ccncc2)c2cc([N+](=O)[O-])ccc21 ?
## Result > 100 µM

## Task What does the record list as IC50 at 48 h for C#CCn1cc(/C=N\N=C/CCC)c2cc([N+](=O)[O-])ccc21 ?
## Result > 100 µM

## Task What does the record list as IC50 at 48 h for C#CCn1cc(/C=N\N=C\c2ccco2)c2cc([N+](=O)[O-])ccc21 ?
## Result > 100 µM

====

Protocol Details: Selectivity index, ratio of IC50 for human THP-1 cells to IC50 for leishmanicidal activity against Leishmania donovani 9515 (MHOM/IN/95/9151) amastigote
Type: toxicity, cell-based
Setup Conditions: read-out: Ratio IC50
Reported selectivity ratio is given for each of the following compounds.

Solved cases (4 shown):
- C#CCn1cc(/C=N\N=C\c2cccnc2)c2cc([N+](=O)[O-])ccc21: > 68
- C#CCn1cc(/C=N\N=C\c2ccco2)c2cc([N+](=O)[O-])ccc21: > 39
- C#CCn1cc(\C=N/N=C/C(C)=C\C)c2cc([N+](=O)[O-])ccc21: > 59
- C#CCn1cc(/C=N\N=C\c2ccc([N+](=O)[O-])s2)c2cc([N+](=O)[O-])ccc21: > 28

Next compound, selectivity ratio to be filled in.
## Task What does the record list as selectivity ratio for C#CCn1cc(/C=N\N=C\c2ccccn2)c2cc([N+](=O)[O-])ccc21 ?
## Result > 30

====

Reported pIC50 is given for each of the following molecules.
Tested on: Trypanosoma congolense
Protocol Details: Trypanocidal activity against Trypanosoma congolense IL3000 incubated for 72 hrs by CellTiter-Glo reagent based […] analysis
Type: functional, organism-based
Setup Conditions: IL3000, 72 h
pIC50: −log10 of the molar value.

* C#CCn1cc(/C=N\N=C\c2cccnc2)c2cc([N+](=O)[O-])ccc21 | < 4.12

## Task Form field - read-out: pIC50; system: Trypanosoma congolense; submitted item: C#CCn1cc(/C=N\N=C/CCC)c2cc([N+](=O)[O-])ccc21
## Result < 4.07

## Task Form field - read-out: pIC50; system: Trypanosoma congolense; submitted item: C#CCn1cc(/C=N\N=C\c2ccccn2)c2cc([N+](=O)[O-])ccc21
## Result < 4.12

## Task Form field - read-out: pIC50; system: Trypanosoma congolense; submitted item: C#CCn1cc(C=O)c2cc([N+](=O)[O-])ccc21
## Result < 3.96

## Task Form field - read-out: pIC50; system: Trypanosoma congolense; submitted item: C#CCn1cc(/C=N\N=C/CC)c2cc([N+](=O)[O-])ccc21
## Result < 4.05

## Task Form field - read-out: pIC50; system: Trypanosoma congolense; submitted item: C#CCn1cc(/C=N\N=C\c2cccn2C)c2cc([N+](=O)[O-])ccc21
## Result < 4.13
